biological target: N(G),N(G)-dimethylarginine dimethylaminohydrolase 1 (Homo sapiens, UniProt O94760); assay: Inhibition of recombinant human DDAH1 expressed in HEK293 cells using ADMA as substrate preincubated for 5 mins
Sequence (O94760 whole entry): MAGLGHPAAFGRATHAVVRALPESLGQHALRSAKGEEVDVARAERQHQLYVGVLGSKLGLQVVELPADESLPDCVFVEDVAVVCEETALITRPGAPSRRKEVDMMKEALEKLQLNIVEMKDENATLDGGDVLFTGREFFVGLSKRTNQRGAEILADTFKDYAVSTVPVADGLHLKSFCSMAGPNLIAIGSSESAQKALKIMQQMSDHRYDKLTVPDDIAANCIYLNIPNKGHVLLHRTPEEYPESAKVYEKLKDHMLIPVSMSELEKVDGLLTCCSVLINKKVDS
READOUT KIND: IC50 (µM)

a: COCCNC(=N)NCCC[C@H](N)c1nnn[nH]1
b: COCCNC(=N)NCCC[C@H](N)c1noc(=O)[nH]1
**Q:** Lab notebook, comparison: a versus b , higher IC50 goes to which? Reply with the label of the item you choose.
**A:** a
(a: 34 µM, b: 18 µM)

P: COCCNC(=N)NCCC[C@H](N)C(=O)NO
Q: COCCNC(=N)NCCC[C@H](N)C(=O)NOC
**Q:** Of P and Q , whose reported IC50 is numerically smaller? Please indicate the selected item by its label.
**A:** P

====

test: Inhibition of human arginase in human HT-29 cells assessed as inhibition constant; type: cell-based
READOUT KIND: pKi
Bear in mind: pKi is minus log10 of a mol/L concentration; give just that figure.

**Q:** Fill in pKi for record NCCCC(N)(C(=O)O)C(F)F (racemic)
**A:** 2.41

====

target: Nitric oxide synthase 1 (Homo sapiens, UniProt P29475); test: Inhibition of human nNOS
Sequence (P29475 whole entry): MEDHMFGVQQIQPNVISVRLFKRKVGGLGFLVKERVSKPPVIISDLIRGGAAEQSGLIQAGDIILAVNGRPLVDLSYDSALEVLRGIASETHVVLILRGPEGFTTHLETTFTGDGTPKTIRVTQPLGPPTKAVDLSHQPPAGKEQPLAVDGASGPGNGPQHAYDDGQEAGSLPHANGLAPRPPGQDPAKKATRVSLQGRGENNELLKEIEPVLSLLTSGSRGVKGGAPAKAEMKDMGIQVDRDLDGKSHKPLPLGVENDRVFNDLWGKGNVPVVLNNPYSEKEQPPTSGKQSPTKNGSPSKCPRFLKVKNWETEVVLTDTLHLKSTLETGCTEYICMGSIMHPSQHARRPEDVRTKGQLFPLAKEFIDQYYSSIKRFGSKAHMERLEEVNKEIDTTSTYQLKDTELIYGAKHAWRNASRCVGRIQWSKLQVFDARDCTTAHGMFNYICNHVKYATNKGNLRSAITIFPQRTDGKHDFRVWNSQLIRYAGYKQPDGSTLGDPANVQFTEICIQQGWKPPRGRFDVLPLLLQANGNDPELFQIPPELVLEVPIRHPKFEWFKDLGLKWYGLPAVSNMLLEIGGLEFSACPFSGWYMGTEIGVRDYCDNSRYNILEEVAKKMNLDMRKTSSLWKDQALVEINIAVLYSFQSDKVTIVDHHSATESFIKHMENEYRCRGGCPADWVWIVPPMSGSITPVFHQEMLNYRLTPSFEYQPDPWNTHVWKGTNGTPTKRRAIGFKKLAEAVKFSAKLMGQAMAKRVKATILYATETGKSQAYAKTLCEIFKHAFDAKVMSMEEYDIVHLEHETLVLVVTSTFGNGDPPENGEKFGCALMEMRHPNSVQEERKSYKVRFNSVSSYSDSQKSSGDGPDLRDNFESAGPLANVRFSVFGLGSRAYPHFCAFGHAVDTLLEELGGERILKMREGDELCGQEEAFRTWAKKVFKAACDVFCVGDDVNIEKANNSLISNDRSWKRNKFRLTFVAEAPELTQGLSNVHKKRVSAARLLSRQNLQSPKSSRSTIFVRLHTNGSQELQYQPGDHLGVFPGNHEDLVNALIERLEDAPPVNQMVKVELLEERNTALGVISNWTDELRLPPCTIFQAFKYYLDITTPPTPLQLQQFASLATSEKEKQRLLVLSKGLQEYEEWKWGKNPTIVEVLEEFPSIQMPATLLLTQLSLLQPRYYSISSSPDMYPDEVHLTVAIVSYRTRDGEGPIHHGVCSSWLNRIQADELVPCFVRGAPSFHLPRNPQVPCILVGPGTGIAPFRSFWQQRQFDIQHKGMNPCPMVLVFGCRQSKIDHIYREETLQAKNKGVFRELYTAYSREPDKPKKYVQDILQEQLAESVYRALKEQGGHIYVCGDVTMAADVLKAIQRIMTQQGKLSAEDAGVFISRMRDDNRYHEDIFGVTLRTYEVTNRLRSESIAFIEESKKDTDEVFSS
READOUT KIND: IC50 (µM)

A: CC(=N)NCCCC[C@H](N)C(O)CO (some centres not stated)
B: CCSC(=N)NCCC[C@H](N)C(=O)O
**Q:** Sorting ascending by IC50, which comes first: A or B ? Output the label that corresponds to your choice.
**A:** B
(B: 0.001 µM, A: 150 µM)

====

target: Nitric oxide synthase 1 (Homo sapiens); assay: Inhibition of human nNOS expressed in baculovirus infected Spodoptera frugiperda cell using L-arginine as substrate preincubated for 15 mins followed by substrate addition measured after 15 mins by oxyhaemoglobin assay
READOUT KIND: pIC50
In plain terms, pIC50 is the concentration in mol/L turned into minus its base-10 logarithm.

**Q:** System Nitric oxide synthase 1 (Homo sapiens). Read-out pIC50. Item CC(=N)NCCSCC[C@H](N)C(=O)O . Report value.
**A:** 3.75

====

test: Inhibition of bovine nNOS; parameters: species or system Bos taurus
READOUT KIND: pIC50
Note on pIC50: it is the negative log10 of concentration, concentration in mol/L.

**Q:** Assign pIC50 to the following record: N=C(NN)NO
**A:** 4.77

====

molecular target: N(G),N(G)-dimethylarginine dimethylaminohydrolase 1 (Homo sapiens); experiment: Inhibition of human DDAH1 expressed in Escherichia coli BL21 cells measured after 30 mins by […] assay
READOUT KIND: pIC50
Recall that pIC50 is obtained by taking minus log10 of the concentration measured in molar.

**Q:** Name the recorded pIC50 of the item C=CCC(=N)NCCC[C@H](N)C(=O)O in your answer.
**A:** 4.92

====

Target: Nitric oxide synthase, inducible (Mus musculus)
Sequence (P29477 whole entry): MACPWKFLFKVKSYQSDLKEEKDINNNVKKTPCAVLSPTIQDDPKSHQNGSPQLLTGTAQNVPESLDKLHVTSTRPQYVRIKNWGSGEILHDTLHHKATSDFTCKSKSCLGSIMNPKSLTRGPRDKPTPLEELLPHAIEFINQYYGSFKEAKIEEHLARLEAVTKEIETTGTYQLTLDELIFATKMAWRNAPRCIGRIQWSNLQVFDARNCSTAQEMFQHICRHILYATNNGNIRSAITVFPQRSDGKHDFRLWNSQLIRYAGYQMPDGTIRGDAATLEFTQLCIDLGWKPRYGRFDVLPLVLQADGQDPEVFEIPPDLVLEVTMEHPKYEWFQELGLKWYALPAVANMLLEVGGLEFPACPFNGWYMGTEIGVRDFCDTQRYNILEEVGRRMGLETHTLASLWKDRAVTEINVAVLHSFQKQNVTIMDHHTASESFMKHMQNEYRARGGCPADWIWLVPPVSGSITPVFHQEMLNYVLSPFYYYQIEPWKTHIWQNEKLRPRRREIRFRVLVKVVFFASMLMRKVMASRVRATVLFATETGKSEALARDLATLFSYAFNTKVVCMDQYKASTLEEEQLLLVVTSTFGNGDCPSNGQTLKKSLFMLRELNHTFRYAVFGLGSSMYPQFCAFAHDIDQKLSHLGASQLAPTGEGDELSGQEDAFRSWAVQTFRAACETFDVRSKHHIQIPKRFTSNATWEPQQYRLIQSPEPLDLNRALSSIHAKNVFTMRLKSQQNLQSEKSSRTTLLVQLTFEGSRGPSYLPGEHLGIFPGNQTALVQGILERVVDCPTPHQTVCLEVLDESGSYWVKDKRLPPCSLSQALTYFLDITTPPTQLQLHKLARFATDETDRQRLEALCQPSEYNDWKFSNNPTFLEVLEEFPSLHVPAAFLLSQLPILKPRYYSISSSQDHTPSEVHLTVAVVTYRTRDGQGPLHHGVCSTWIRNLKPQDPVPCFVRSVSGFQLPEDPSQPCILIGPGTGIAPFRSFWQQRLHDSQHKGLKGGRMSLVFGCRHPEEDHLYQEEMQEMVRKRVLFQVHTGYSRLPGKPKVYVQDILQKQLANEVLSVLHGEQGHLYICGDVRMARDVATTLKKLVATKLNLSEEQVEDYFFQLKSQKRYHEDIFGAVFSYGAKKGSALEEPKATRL
READOUT KIND: IC50 (µM)
Numbers only here, please. The scale is µM.

**Q:** State its IC50: N=C(NN)NO
**A:** 23

====

target: N(G),N(G)-dimethylarginine dimethylaminohydrolase 1 (Homo sapiens); experiment: Inhibition of human DDAH1 assessed as inhibition constant by microplate reader assay
READOUT KIND: pKi
Give only the number. pKi is defined as minus log10 of concentration in molar units.

**Q:** Please look at N[C@@H](CCSN=O)C(=O)O and tell me its recorded pKi on N(G),N(G)-dimethylarginine dimethylaminohydrolase 1 (Homo sapiens).
**A:** 3.16

====

Molecular target: Nitric oxide synthase 3 (Homo sapiens, UniProt P29474)
Sequence (P29474 whole entry): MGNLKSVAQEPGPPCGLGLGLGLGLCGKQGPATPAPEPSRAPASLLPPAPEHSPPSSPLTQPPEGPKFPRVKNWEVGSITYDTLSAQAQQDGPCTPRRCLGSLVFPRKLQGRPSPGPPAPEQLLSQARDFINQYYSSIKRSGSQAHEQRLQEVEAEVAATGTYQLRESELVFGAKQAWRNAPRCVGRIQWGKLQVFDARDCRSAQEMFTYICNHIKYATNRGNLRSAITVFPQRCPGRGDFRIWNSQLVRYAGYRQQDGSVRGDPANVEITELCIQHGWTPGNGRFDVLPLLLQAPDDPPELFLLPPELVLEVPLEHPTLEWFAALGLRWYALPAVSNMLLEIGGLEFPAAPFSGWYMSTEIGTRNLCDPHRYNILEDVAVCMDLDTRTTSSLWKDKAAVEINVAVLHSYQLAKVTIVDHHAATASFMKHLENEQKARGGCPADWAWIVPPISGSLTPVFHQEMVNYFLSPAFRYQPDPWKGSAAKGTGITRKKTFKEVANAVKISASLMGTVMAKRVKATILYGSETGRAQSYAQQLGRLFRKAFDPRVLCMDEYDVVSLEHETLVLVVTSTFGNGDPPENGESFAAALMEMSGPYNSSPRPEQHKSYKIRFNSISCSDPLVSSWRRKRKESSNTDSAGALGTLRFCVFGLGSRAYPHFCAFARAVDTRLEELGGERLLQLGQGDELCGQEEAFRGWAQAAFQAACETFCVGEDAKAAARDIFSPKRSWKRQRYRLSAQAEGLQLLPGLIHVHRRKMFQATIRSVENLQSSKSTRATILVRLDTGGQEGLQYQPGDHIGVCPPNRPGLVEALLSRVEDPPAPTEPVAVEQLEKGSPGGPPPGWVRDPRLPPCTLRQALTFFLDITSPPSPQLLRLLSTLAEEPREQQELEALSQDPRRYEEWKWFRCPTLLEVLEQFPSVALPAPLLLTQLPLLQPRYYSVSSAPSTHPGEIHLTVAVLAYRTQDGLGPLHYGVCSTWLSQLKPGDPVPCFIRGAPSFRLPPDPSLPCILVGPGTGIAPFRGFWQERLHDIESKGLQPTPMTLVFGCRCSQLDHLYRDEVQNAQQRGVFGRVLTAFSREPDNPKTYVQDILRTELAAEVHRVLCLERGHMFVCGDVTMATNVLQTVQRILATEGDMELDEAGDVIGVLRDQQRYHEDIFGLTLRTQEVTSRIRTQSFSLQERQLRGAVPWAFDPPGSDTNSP
Experiment: Inhibition of human eNOS assessed as inhibition constant
READOUT KIND: pKi
Please express pKi as -log10 of the molar concentration.

**Q:** Answer with the recorded pKi of CCSC(=N)NCCC[C@H](N)C(=O)O only.
**A:** 7.62

====

target: N(G),N(G)-dimethylarginine dimethylaminohydrolase 1 (Homo sapiens); test: Inhibition of human DDAH1
READOUT KIND: IC50 (µM)
Report the value in µM with no unit label.

**Q:** Give IC50; test system N(G),N(G)-dimethylarginine dimethylaminohydrolase 1 (Homo sapiens); molecule C#CCCNC(=N)CCl
**A:** 350
